test: qHTS RealTime-Glo MT Cell Viability Assay in HEK293 cells - 32 hour (AID 1224868); conditions: RealTime-Glo luminescence; series mostly up to 76.8 µM; further: nearly all actives have a fitted effect of over 50% in size
Records with an inconclusive call do not appear. Calls of active or inactive are those of the source. The call rests on the fitted dose curve; in most records, active means well fitted cell-killing curve with a large enough effect in the repeat runs; inconclusive means weak or mixed curves, or effect the other way; inactive means flat fitted curve, though single readings scatter.
Please state which outcome applies, choosing from active, inactive

{"compound": "CCOC(=O)CN", "classification": "inactive"}

q: Tell me the assay call for C#CC(O)CCC (stereo not given) please.
a: inactive

q: Tell me the assay call for "CCCCCCCCC(C)=O" please.
a: inactive

q: Tell me the assay call for CC(C(O)c1ccccc1)N(C)CCOC(c1ccccc1)c1ccccc1 (stereo not given) please.
a: active

q: Tell me the assay call for "Cc1c(C(=O)O)cccc1[N+](=O)[O-]" please.
a: inactive

---

test: qHTS RealTime-Glo MT Cell Viability Assay in HEK293 cells - 24 hour (AID 1224886); conditions: RealTime-Glo luminescence; series mostly up to 76.8 µM; further: nearly all actives have a fitted effect of over 50% in size
Records with an inconclusive call do not appear. Active and inactive are the calls of the source. Calls come from the whole dose curve; as a rule, active = well fitted cell-killing curve with a large enough effect in the repeat runs; inconclusive = weak or mixed curves, or effect the other way; inactive = flat fitted curve, though single readings scatter.
Please state which outcome applies, choosing from active, inactive

{"molecule": "C#CC(O)CCC (centres undefined)", "classification": "inactive"}
{"molecule": "CCC1CCCCC1", "classification": "inactive"}
{"molecule": "Oc1ccc(-c2ccccc2)c(Cl)c1", "classification": "active"}

Could you now look at the following molecule, please?
q: Tell me the assay call for CC(NCCC(c1ccccc1)c1ccccc1)c1ccccc1 (centres undefined) please.
a: active

---

assay: qHTS RealTime-Glo MT Cell Viability Assay in HepG2 cells - 24 hour (AID 1224867); conditions: RealTime-Glo luminescence; series mostly up to 76.8 µM; further: nearly all actives have a fitted effect of over 50% in size
Records with an inconclusive call do not appear. Activity calls are given as the source filed them. The call rests on the fitted dose curve; in most records, active means well fitted cell-killing curve with a large enough effect in the repeat runs; inconclusive means weak or mixed curves; inactive means flat fitted curve, though single readings scatter.
endpoint.label: Potency

Use these answered entries as a reference point.
{"molecule": "CCO[Si](CCCSSSSCCC[Si](OCC)(OCC)OCC)(OCC)OCC", "Potency": "inactive"}
{"molecule": "C[C@H]1O[C@@H](O[C@H]2[C@@H](O)C[C@H](O[C@H]3[C@@H](O)C[C@H](O[C@H]4CC[C@@]5(C)[C@H](CC[C@@H]6[C@@H]5C[C@@H](O)[C@]5(C)[C@@H](C7=CC(=O)OC7)CC[C@]65O)C4)O[C@@H]3C)O[C@@H]2C)C[C@H](O)[C@@H]1O", "Potency": "inactive"}
{"molecule": "CCC1CCCCC1", "Potency": "inactive"}
{"molecule": "CC1=C(/C=C/C(C)=C/C=C/C(C)=C\\C=O)C(C)(C)CCC1", "Potency": "inactive"}
{"molecule": "Clc1nc2ccccc2s1", "Potency": "inactive"}
{"molecule": "CCCCN(C)C", "Potency": "inactive"}

As a next step, examine the molecule that follows.
q: What Potency value was documented for this molecule, "CCCCCCCCCCCC(=O)N(CC)CC" ?
a: inactive

---

Target: Voltage-gated inwardly rectifying potassium channel KCNH2 (Homo sapiens)
Test: Human Ether-a-go-go-Related Gene (hERG) channel small molecule antagonists: fluorescence cell-based qHTS assay (AID 1671200);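 further: hERG-expressing U2OS cells given a thallium stimulus after FluxOR II dye loading; nearly all actives have a fitted effect of over 50% in size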
Settings: hERG-U2OS cells, FluxOR thallium flux fluorescence; series mostly up to 76.8 µM
From the text: National Center for Advancing Translational Sciences [NCATS] U.S. Environmental Protection Agency [EPA] National Institutes of Environmental Health Sciences [NIEHS] National Toxicology Program [NTP] U.S. Food and Drug Administration [FDA] Mutations in the hERG channel cause Long QT (LQT) syndrome. LQT syndrome is a cardiac disorder which can cause ventricle arrhythmia and sudden death. Additionally, compounds which block the hERG channel can cause acquired LQT syndrome. […]
Results filed as inconclusive are left out. The source made the active and inactive calls. Calls follow the shape of the dose curve; as a rule, active = well fitted inhibition curve with a large enough effect in the repeat runs; inconclusive = weak or mixed curves; inactive = flat fitted curve, though single readings scatter.

{"smi": "Cn1cccc1", "outcome": "inactive"}
{"smi": "Cc1cc(C)c(C=O)c(C)c1", "outcome": "inactive"}
{"smi": "CCCCCCCC/C=C/CCCOC(C)=O", "outcome": "inactive"}

---

assay: A CellTox Green Cytotoxicity Assay to monitor cytotoxicity in HepG2 cells - 24 hour (AID 1224878); settings: CellTox Green fluorescence; series mostly up to 76.8 µM; further: nearly all actives have a fitted effect of over 45% in size
Records with an inconclusive call do not appear. Active and inactive are the calls of the source. Calls follow the shape of the dose curve; as a rule, active = well fitted activation curve with a large enough effect in the repeat runs; inconclusive = weak or mixed curves; inactive = flat fitted curve, though single readings scatter.
Please state which outcome applies, choosing from y for active, n for inactive

Field: example entries. Status: answers known.
{"smi": "CCOC(OCC)C(=O)c1ccccc1", "classification": "n"}
{"smi": "CCC1(c2cnc[nH]2)Cc2ccccc2C1", "classification": "n"}
{"smi": "Cc1c(C(=O)O)cccc1[N+](=O)[O-]", "classification": "n"}
{"smi": "CS(C)(=O)=O", "classification": "n"}

q: Tell me the assay call for "CC(C)(C)c1cc(/C=C2\SC(=N)NC2=O)cc(C(C)(C)C)c1O" please.
a: y

---

target: Cytochrome P450 2D6 (Homo sapiens); experiment: Cytochrome P450 Family 2 Subfamily D Member 6 (CYP2D6) small molecule antagonists: luciferase reporter qHTS assay (AID 1671196); conditions: P450-Glo CYP2D6 enzyme assay, luciferin luminescence, 1 h; series mostly up to 115 µM; further: nearly all actives have a fitted effect of over 50% in size; further: potency means the concentration at half of the fitted maximal effect
Results filed as inconclusive are left out. Active and inactive are the calls of the source. The call rests on the fitted dose curve; in most records, active means well fitted inhibition curve with a large enough effect in the repeat runs; inconclusive means weak or mixed curves; inactive means no such curve, though single readings can be large or run the other way.
endpoint.label: Potency

Use these answered entries as a reference point.
{"compound": "C=C1C(C)(C)[C@@]2(Cl)C(Cl)[C@]1(Cl)C(Cl)(Cl)C2(Cl)Cl (some centres not stated)", "measurement": "31.1 µM (active)"}
{"compound": "CC(CN(C)C)CN1c2ccccc2CCc2ccccc21 (configuration not stated)", "measurement": "3.09 µM (active)"}
{"compound": "O=Nc1ccc(NO)cc1", "measurement": "inactive"}
{"compound": "CCCCCCCCCCCCCC[n+]1ccccc1", "measurement": "1.78 µM (active)"}
{"compound": "CC(C)=C1CC[C@@H](C)CC1=O", "measurement": "inactive"}
{"compound": "CCN1CCN(c2cc(-c3ccc(F)cc3)c3c(n2)CCCCCC3)CC1", "measurement": "6.74 µM (active)"}
{"compound": "CCOC(/C=C(\\C)CCC=C(C)C)OCC", "measurement": "inactive"}
{"compound": "COc1cccc(O)c1", "measurement": "inactive"}

q: What Potency value was documented for this compound, COC(=O)CC(C)CCC=C(C)C (configuration not stated) ?
a: inactive

---

target: Cytochrome P450 3A4 (Homo sapiens); assay: Cytochrome P450 Family 3 Subfamily A Member 4 (CYP3A4) small molecule antagonists: luciferase reporter qHTS assay (AID 1671201); settings: P450-Glo CYP3A4 enzyme, luciferin luminescence, 1 h; series mostly up to 115 µM; further: nearly all actives have a fitted effect of over 50% in size
Records with an inconclusive call do not appear. Activity calls are given as the source filed them. The call rests on the fitted dose curve; in most records, active means well fitted inhibition curve with a large enough effect in the repeat runs; inconclusive means weak or mixed curves; inactive means no such curve, though single readings can be large or run the other way.
Please state which outcome applies, choosing from TRUE = active, FALSE = inactive

Field: example entries. Status: answers known.
{"compound": "C=CC(=O)OCC(O)COc1ccccc1 (stereo unspecified)", "classification": "FALSE"}
{"compound": "C=C(C)C(=O)OCCC[Si](Cl)(Cl)Cl", "classification": "TRUE"}
{"compound": "COC(=O)[C@]1(C)CCC[C@@]2(C)[C@H]1CC=C1C=C(C(C)C)CC[C@@H]12", "classification": "TRUE"}
{"compound": "CCCN(CCc1cccs1)[C@H]1CCc2c(O)cccc2C1", "classification": "FALSE"}
{"compound": "CCCCCCCCCCCCCOP(=O)(O)O", "classification": "FALSE"}

Could you now look at the following compound, please?
q: Tell me the assay call for "C=C/C=C/C=C/CCCCC" please.
a: TRUE

---

molecular target: Nuclear receptor ROR-gamma (Homo sapiens) (UniProt P51449); test: qHTS assay to identify small molecule antagonists of the retinoid-related orphan receptor gamma (ROR-gamma) signaling pathway (AID 1159521); conditions: Tet-on RORgamma CHO cells, RORE-luciferase, 16 h; series mostly up to 92.4 µM
Inconclusive results are not listed. Active and inactive are the calls of the source. The call rests on the fitted dose curve; in most records, active means well fitted inhibition curve with a large enough effect in the repeat runs; inconclusive means weak or mixed curves, or effect the other way; inactive means no such curve, though single readings can be large or run the other way.
Please state which outcome applies, choosing from active, inactive

Field: example entries. Status: answers known.
{"compound": "Cc1ccc(N)cc1O", "system": "Nuclear receptor ROR-gamma (Homo sapiens) (UniProt P51449)", "classification": "inactive"}
{"compound": "CCC(C)C(=O)OC (centres undefined)", "system": "Nuclear receptor ROR-gamma (Homo sapiens) (UniProt P51449)", "classification": "inactive"}
{"compound": "Cn1cnc2ncnc(N)c21", "system": "Nuclear receptor ROR-gamma (Homo sapiens) (UniProt P51449)", "classification": "inactive"}
{"compound": "C/C=C/c1ccc(OC)c(OC)c1", "system": "Nuclear receptor ROR-gamma (Homo sapiens) (UniProt P51449)", "classification": "inactive"}
{"compound": "CCCC(=O)OCC(COC(=O)CCC)OC(=O)CCC", "system": "Nuclear receptor ROR-gamma (Homo sapiens) (UniProt P51449)", "classification": "inactive"}
{"compound": "O=C(O)CCCCCCC(=O)O", "system": "Nuclear receptor ROR-gamma (Homo sapiens) (UniProt P51449)", "classification": "inactive"}
{"compound": "COC(=O)[C@]1(C)CCC[C@@]2(C)[C@H]1CC=C1C=C(C(C)C)CC[C@@H]12", "system": "Nuclear receptor ROR-gamma (Homo sapiens) (UniProt P51449)", "classification": "inactive"}
{"compound": "Nc1ncnc2c1ncn2[C@@H]1O[C@H](COP(=O)(O)O)[C@@H](O)[C@H]1O", "system": "Nuclear receptor ROR-gamma (Homo sapiens) (UniProt P51449)", "classification": "inactive"}

q: Tell me the assay call for "C[Si](C)(C)Cl" please.
a: inactive

q: Tell me the assay call for "CCCCCCCCCCCCCCNCCO" please.
a: inactive

q: Tell me the assay call for CCCCOC(=O)C(C)CC (centres undefined) please.
a: inactive

q: Tell me the assay call for "CC[N+](CC)(CC)Cc1ccccc1" please.
a: inactive

q: Tell me the assay call for "CCc1cccc(CC)c1NC(=O)C(=O)O" please.
a: inactive
